Record form. Attribute: z-score. Fill in for each entry.
# subject_of_test: Luciferin 4-monooxygenase (Photinus pyralis) (UniProt P08659)
# Sequence (P08659 whole entry, looked up): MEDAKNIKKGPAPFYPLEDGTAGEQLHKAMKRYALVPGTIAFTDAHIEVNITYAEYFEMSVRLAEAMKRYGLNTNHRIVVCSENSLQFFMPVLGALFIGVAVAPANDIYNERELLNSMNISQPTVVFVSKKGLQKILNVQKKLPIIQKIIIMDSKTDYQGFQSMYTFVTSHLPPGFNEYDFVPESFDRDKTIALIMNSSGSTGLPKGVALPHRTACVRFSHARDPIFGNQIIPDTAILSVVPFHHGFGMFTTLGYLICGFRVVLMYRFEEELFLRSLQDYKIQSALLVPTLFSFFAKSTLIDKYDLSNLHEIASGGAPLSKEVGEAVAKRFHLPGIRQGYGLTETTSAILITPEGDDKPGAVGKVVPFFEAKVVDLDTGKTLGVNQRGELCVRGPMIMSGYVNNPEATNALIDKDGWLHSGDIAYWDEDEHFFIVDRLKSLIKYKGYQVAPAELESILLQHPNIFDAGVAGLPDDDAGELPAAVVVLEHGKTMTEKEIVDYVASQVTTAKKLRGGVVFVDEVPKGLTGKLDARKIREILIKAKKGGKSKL
# measurement_notes: firefly luciferase enzyme inhibitors, primary screen, biochemical, luminescence, purified enzyme, 2006 set (AID 1141);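 further: cell-free assay with purified firefly luciferase at 100 ng per well in PBS; test concentration not given here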
# experimental_setup: SteadyGlo luminescence, 30 min, higher = more signal, called active from +8 up or from −8 down
Please state the value as a number alone, without comment.

Inquiry: Report z-score for `CC(C)OC(=O)C=C1C[C@@H](c2ccc(C#N)cc2)O[C@@H](c2ccc(C#N)cc2)O1`
Reply text: -0.178

Inquiry: Report z-score for `C[C@@H]1CC[C@H]2C(=O)O[C@H](COc3ccc(C(C)(C)C)cc3)CN2[C@H]1c1ccc(Br)cc1`
Reply text: -1.36

Inquiry: Report z-score for `COCCCNC(=O)[C@@]1(C)c2ccccc2C(=O)N(Cc2ccc(OC(F)(F)F)cc2)[C@H]1c1ccc(CO)cc1`
Reply text: -0.159

Inquiry: Report z-score for `COCCOC(=O)N1C(=O)[C@@]2(c3cc(C#Cc4ccc(OC)cc4)ccc31)[C@H](c1ccc(O)cc1)N1[C@H](c3ccccc3)[C@H](c3ccccc3)OC(=O)[C@H]1[C@@H]2C(N)=O`
Reply text: 0.556

Inquiry: Report z-score for `CC(=O)OC[C@H]1O[C@H](CCON=C[C@@H](C)[C@H](OCc2ccccc2)C(C)C)C=C[C@@H]1OC(C)=O`
Reply text: 1.26

Inquiry: Report z-score for `CCN1C(=O)[C@H]2[C@H]3[C@H](O)[C@H](O)CC(=NOCc4ccccc4)[C@H]3CC[C@H]2C1=O`
Reply text: 0.243

Inquiry: Report z-score for `O=C1[C@H]2[C@H]3[C@H](O)[C@H](O)CC(=NO[C@@H]4O[C@H](CO)[C@@H](O)[C@H](O)[C@H]4O)[C@@H]3CC[C@H]2C(=O)N1c1ccc(F)cc1F`
Reply text: 0.523

Inquiry: Report z-score for `CC(C)CON=C1[C@H]2CCn3c(=O)n(-c4ccccc4)c(=O)n3[C@H]2[C@H](O)[C@@H]2O[C@H]12`
Reply text: -0.408

Inquiry: Report z-score for `COc1ccc(O[C@@H]2[C@H](O)CO[C@H]2C=CC#Cc2ccccc2)cc1`
Reply text: -0.391

Inquiry: Report z-score for `NC(=O)NCC#Cc1ccc2c(c1)[C@]1(C(=O)N2)[C@H](c2ccc(O)cc2)N2[C@H](c3ccccc3)[C@H](c3ccccc3)OC(=O)[C@H]2[C@@H]1C(=O)N1CCCCCCC1`
Reply text: 0.363

Inquiry: Report z-score for `CCN1C(=O)[C@H]2[C@H]3[C@H](O)C=CC(=O)[C@@H]3CC[C@H]2C1=O`
Reply text: -0.605

Inquiry: Report z-score for `CCCC[C@@H]1C[C@H]1[C@@H](NS(=O)(=O)c1cccc2cccnc12)c1ccc(-c2ccccc2)cc1`
Reply text: 0.633

Inquiry: Report z-score for CC(=O)O[C@H]1C2=C(C(=O)[C@@H]3O[C@@H]31)[C@H]1C(C)O[C@@H]2[C@@]23C(=O)[C@@H]4O[C@@H]4[C@@H](O)C2=CO[C@H](C)[C@@H]13 (stereo not given in full)
Reply text: 0.327

Inquiry: Report z-score for CCOC(=O)[C@H](Cc1ccccc1)NC(=O)CCC1CC(OC(=O)NCCc2ccc(F)cc2)CC2(CCCC(COC(=O)NCC(c3ccccc3)c3ccccc3)O2)O1 (stereo not given in full)
Reply text: 0.715

Inquiry: Report z-score for `C=C(COC)/C(=C/C[C@H](OC(=O)c1ccncc1)c1ccc(CO)o1)c1cc(C(=O)OC)ccc1OC`
Reply text: -0.448

Inquiry: Report z-score for `O=C(NN=C1C[C@@H](O)[C@@H](O)[C@@H]2[C@@H]3C(=O)N(c4cccc(Oc5ccccc5)c4)C(=O)[C@@H]3CC[C@H]12)OCc1ccccc1`
Reply text: 1.26

Inquiry: Report z-score for `C[N+](C)(C)CCCCCCNC(=O)[C@@H]1C[C@@H]2C(=O)N3CCC[C@H]3C(=O)N2[C@@H]1c1cccc(OCCO)c1`
Reply text: 0.688

Inquiry: Report z-score for CCOc1ccc(N2C(=O)/C(=C/C=C/c3ccccc3OC)S(=O)(=O)C2c2cccc([N+](=O)[O-])c2)cc1 (stereo not given)
Reply text: -0.889

Inquiry: Report z-score for CCOC(=O)[C@H](CC(C)C)NC(=O)CCC1CC(OC(=O)NCc2cccc3ccccc23)CC2(CCCC(COC(=O)NCCc3ccccc3OC)O2)O1 (stereo not given in full)
Reply text: 0.755

Inquiry: Report z-score for `O=C1C[C@@H](O)[C@@H](O)[C@@H]2[C@@H]3C(=O)N(Cc4ccc5c(c4)OCO5)C(=O)[C@@H]3CC[C@@H]12`
Reply text: -0.786
